Where do these numbers come from? They come from PubChem BioAssay (NCI).

# System: LOX IMVI melanoma
# Measurement notes: NCI-60 one-dose screen, 48 h
# Applied conditions: 10 µM unless noted
Compounds without any hit were thinned out: in the full panel of roughly 83,000, 20% have a hit. Active and inactive are the calls of the source. Rule for the calls: active = growth percent below 10; inactive = the rest.
Pick from active, inactive when you respond.

1. O=C1NC(=O)/C(=C\c2ccco2)S1; inactive

Please state the recorded outcome for this molecule: `CC(=O)Nc1c(Cl)cc2c(c1Cl)Cc1cc([N+](=O)[O-])ccc1-2` inactive

Do the same for `COC(=O)c1cc2c(/C=C3/NC(=S)NC3=O)coc2n1C` please inactive

Do the same for Cc1ccccc1NC(=O)NC(CC(N)=O)c1ccc2c(c1)nc(-c1cccc(Oc3ccc(C(C)(C)C)cc3)c1)n2CCCN1CCCCC1C (stereo not given) please active

Do the same for `CCOC(=O)c1sc(NC(=O)COc2cccc(/C=C3\CCc4cc(OC)ccc4C3=O)c2)nc1C` please inactive

Do the same for Cc1cn(C(C=O)OC(C=O)CO)c(=O)[nH]c1=O (stereo not given) please inactive

Do the same for `CCCCN=C(N)c1ccc(OCCSCCOc2ccc(C(N)=NCCCC)cc2)cc1` please inactive

###

# System: DU-145 prostate
# Measurement notes: NCI-60 one-dose screen, 48 h (100 = growth as untreated, 0 = no growth, -100 = all killed)
# Applied conditions: 10 µM unless noted
Compounds without any hit were thinned out: in the full panel of roughly 83,000, 20% have a hit.
Readout label: growth (%)
All answers are understood in %, so give the number only.

1. OCc1n(Cc2ccc3ccccc3c2)cc[n+]1Cc1ccc2ccccc2c1; 84.7
2. C#C[C@]1(O)CCC2C3CCc4cc(O)ccc4C3CC[C@@]21C (some centres undefined); 60.8

GET /values?readout=growth&item= C[N+]1(C)C2CC[C@@H]1CC(OC(=O)C(O)c1ccccc1)C2 (some centres undefined) 127

Do the same for `C[C@@H]1C[C@@H]([C@@H](CC2CC(=O)NC(=O)C2)OC(=O)CC(=O)c2ccccc2)C(=O)[C@@H](C)C1` please 11.8

Do the same for `COc1ccc(NS(=O)(=O)N2CCCCC2)cc1` please 116

Do the same for `COc1ccc(-c2cc(-c3nnc(SCC(=O)Nc4ccc(C(C)=O)cc4)n3-c3ccccc3)c3ccccc3n2)cc1OC` please 110

Do the same for `CCN(CC)CCOCC[C@H]1CC[C@H]2[C@@H]3[C@H](C)Cc4cc(OS(N)(=O)=O)ccc4[C@H]3CC[C@]12C` please -58.6

Do the same for C=C1CC[C@@H]2[C@](C)(COC(C)=O)[C@H](OC(C)=O)CC[C@@]2(C)[C@@H]1CC(NCc1ccccc1)C1=CCOC1=O (some centres undefined) please 67.2

Do the same for `O=C(N/N=C/c1cccc([N+](=O)[O-])c1)c1ccc(Br)o1` please 103

###

# System: T-47D breast
# Measurement notes: NCI-60 one-dose screen, 48 h (100 = growth as untreated, 0 = no growth, -100 = all killed)
# Applied conditions: 10 µM unless noted
This is part of a sample that, as a whole, favours compounds with a hit. Of some 83,000 tested, about 20% had one in any assay. Activity calls are given as the source filed them. How the source made its calls: active means growth percent below 10; inactive means the rest.
Readout label: growth

Check out these entries, answers already filled in.
1. COc1cc2c(cc1OC)C(CC1(O)CCCCC1)N(S(=O)(=O)c1ccc(C)cc1)CC2 (stereo not given); 29.7% [100 µM] (inactive)
2. NC(=O)c1cc(Cl)ccc1NC(=O)c1ccccc1-c1ccccc1; 26.9% (inactive)

GET /values?readout=growth&item= `CN(C)CCCN=c1cc2c(=O)n(CCCN(C)C)c(=O)c3c(NCCCN(C)C)cc4c(O)n(CCCN(C)C)c(=O)c1c4c3-2` -1.16% (active)

Do the same for `O=c1[nH]cc(Nc2cc(Cl)c3nonc3c2[N+](=O)[O-])c(=O)[nH]1` please 101% (inactive)

Do the same for `Oc1ccc(/C=N/Nc2nc3ccccc3s2)c(O)c1` please 26.8% (inactive)

Do the same for `c1ccc(-c2oc(-c3ccccc3)c3ccccc23)cc1` please 101% (inactive)

Do the same for CC[C@H]1CN2CCc3cc(OC)c(OC)cc3C2C[C@@H]1CC1NCCc2cc(OC)c(OC)cc21 (stereo not given in full) please -15.1% (active)

Do the same for C[C@]12CCC(=O)C=C1CCC1C2[C@@H](O)C[C@@]2(C)C1CC[C@]2(O)C(=O)COC(=O)CCC(=O)O (stereo not given in full) please 114% (inactive)

Do the same for `COc1ccc(C(=O)/C=C/c2cccc(Nc3ccnc4cc(Cl)ccc34)c2)cc1` please 15.7% (inactive)

Do the same for `NC(=N\N=C/Cc1ccccc1)/C(N)=N\N=C\Cc1ccccc1` please 91.7% (inactive)

###

# System: SNB-19 CNS
# Measurement notes: NCI-60 one-dose screen, 48 h
# Applied conditions: 10 µM unless noted
Compounds without any hit were thinned out: in the full panel of roughly 83,000, 20% have a hit. Activity calls are given as the source filed them. The calls were made as follows: active = growth percent below 10; inactive = the rest.
Pick from 1.0 (active), 0.0 (inactive) when you respond.

1. COc1cccc(/C=N\NC(=O)c2ccncc2)c1O; 0.0
2. O=C(O)C1CCN(S(=O)(=O)c2ccc(-c3ccccc3)cc2)CC1; 0.0
3. Nc1ccc(Oc2c(F)c(F)c(Oc3ccc(N)cc3)c(F)c2F)cc1; 0.0
4. Cc1ccc2nc(-c3ccc(N(C)C)c(Br)c3)cn2c1; 0.0
5. CC[C@H]1CN2CCc3cc(OC)c(OC)cc3C2C[C@@H]1CC1NCCc2cc(OC)c(OC)cc21 (stereo partly specified); 1.0
6. N#Cc1c(-c2ccccc2)cc(-c2ccccc2)n(CC(=O)O)c1=O; 0.0

Please state the recorded outcome for this compound: `C[C@@H]1[C@H]2[C@H](C=C3[C@@H]4CC[C@H]5Cc6nc7c(nc6C[C@]5(C)[C@H]4C[C@@H](O)[C@@]32C)C[C@@H]2CC[C@H]3C4=C[C@@H]5O[C@@]6(CC[C@](C)(CO)O6)[C@@H](C)[C@@]5(O)[C@@]4(C)[C@H](O)C[C@@H]3[C@@]2(C)C7)O[C@]12CCC(C)(C)O2` 0.0

Do the same for `N#Cc1c(NC(=O)c2ccco2)[n+]([O-])c2ccccc2[n+]1[O-]` please 0.0

Do the same for `COc1cnc2c(c1)C(=O)c1c-2n(CCCN2CCNCC2)c(=O)c2cc(F)ccc12` please 0.0

Do the same for `O=c1[nH]cc(Nc2cc(Cl)c3nonc3c2[N+](=O)[O-])c(=O)[nH]1` please 0.0

Do the same for `O=C1Nc2ccc(Cl)cc2/C1=C/c1cccs1` please 0.0

Do the same for `COc1ccc(C(=O)COc2cccc(/C=C3\COc4ccc5ccccc5c4C3=O)c2)cc1` please 0.0

Do the same for O=C1CSC(c2ccccc2Cl)N1c1nnc(Cn2nnc3ccccc32)o1 (stereo unspecified) please 0.0

###

# Test system: T-47D breast
# Measurement notes: NCI-60 one-dose screen, 48 h
# Applied conditions: 10 µM unless noted
The panel holds about 83,000 compounds, 20% with a hit somewhere; the sample as a whole holds those more often. Activity calls are given as the source filed them. Rule for the calls: active = growth percent below 10; inactive = the rest.
Pick from active, inactive when you respond.

Worked examples, 3 compounds total:
1) C/C=C(/C(=C/C)c1ccc(O)cc1)c1ccc(O)cc1; inactive
2) Cc1ccc2c(c1)C(=O)/C(=C\Nc1ccc(C(N)=O)cc1)C(O)O2 (centres undefined); inactive
3) OCc1n(Cc2ccc3ccccc3c2)cc[n+]1Cc1ccc2ccccc2c1; inactive

Please state the recorded outcome for this compound: `O=C(CNc1ccc2c(c1)C(=O)c1ccccc1C2=O)Nc1ccc2c(c1)C(=O)c1ccccc1C2=O` active

Do the same for `O=c1sc2ncnc3ncn1c32` please inactive

Do the same for `CCOC(=O)c1sc(NC(=O)COc2cccc(/C=C3\CCc4cc(OC)ccc4C3=O)c2)nc1C` please inactive

Do the same for `COc1ccc(-c2cnc(SCC(=O)Nc3ccc(-c4nc5ccccc5s4)cc3)n2-c2ccc(OC)cc2)cc1` please inactive

Do the same for `COc1ccc(-c2nc3sc4c(c3c(=O)[nH]2)CCCCCC4)cc1` please inactive

Do the same for `CC(C)Sc1nc(Cl)c(C#N)c(-c2ccc(F)cc2)n1` please inactive

###

# System: SN12C renal
# Measurement notes: NCI-60 one-dose screen, 48 h (100 = growth as untreated, 0 = no growth, -100 = all killed)
# Applied conditions: 10 µM unless noted
Compounds without any hit were thinned out: in the full panel of roughly 83,000, 20% have a hit. The source made the active and inactive calls. Rule for the calls: active = growth percent below 10; inactive = the rest.
Readout label: growth

Check out these entries, answers already filled in.
1) O=C(Oc1cccc2ccccc12)c1ccccc1C(=O)c1ccccc1; 101% (inactive)
2) C=C1CC[C@@H]2[C@](C)(COC(C)=O)[C@H](OC(C)=O)CC[C@@]2(C)[C@@H]1CC(NCc1ccccc1)C1=CCOC1=O (stereo partly drawn); 58.2% (inactive)
3) COc1cc(/C=C2\CN(S(=O)(=O)c3ccc(C)cc3)C/C(=C\c3cc(CN4CCOCC4)c(O)c(OC)c3)C2=O)cc(CN2CCOCC2)c1O; -19.3% (active)
4) O=C(COc1cccc(/C=C2\Oc3ccc4ccccc4c3C2=O)c1)c1ccc([N+](=O)[O-])cc1; 98.2% (inactive)

GET /values?readout=growth&item= `COc1c(Br)cc(C(c2cc(Br)c(OC)c(Br)c2)c2ccccc2C(=O)O)cc1Br` 96% (inactive)

Do the same for `CCOc1cc(CCNS(=O)(=O)c2ccc(C)cc2)c(C(C)=O)cc1OCC` please 80.5% [100 µM] (inactive)
